target: PDE5 (Homo sapiens (Human), UniProt O76074); test: PDE5 Inhibition Assay (BPS PDE assay kit, fluorescence polarization); format: biochemical
Measurement Name: IC50

1. CCN1Cc2nc3ccc(OC)cc3c(NCc3ccc(OC)c(Cl)c3)c2C1=O [L]
3.8 nM
2. COc1ccc(CNc2c3c(nc4ccc(C#N)cc24)CCN(C)C3)cc1Cl [B]
1 nM
3. COc1ccc(CNc2c3c(nc4ccccc24)CN(C(C)(C)C)C3=O)cc1Cl [Compound P]
333 nM
4. CCN1Cc2nc3ccc(Cl)cc3c(NCc3ccc(OC)c(Cl)c3)c2C1=O [N]
1.7 nM
